Target Under Test: T1, human myostatin (mature, recombinant; R&D Systems) (human, UniProt O14793 267-375)
T1 sequence: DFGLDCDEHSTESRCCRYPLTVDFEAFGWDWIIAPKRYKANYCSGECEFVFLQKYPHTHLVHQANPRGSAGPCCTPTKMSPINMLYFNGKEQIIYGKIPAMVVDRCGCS
Assay Notes: cell-based or functional assay
Endpoint Name: ARE-luciferase IC50 (pM)
Your answer should be a plain number; it is taken to be in pM.

Binder | ARE-luciferase IC50, pM
2524_H05 (designed binder) MGVSDVPRDLEVVAATPTSLLISWSLPYSGLANYYRITYGETGGNSPVQEFTVPGRGVTATISGLKPGVDYTITVYAVTLTHSNIIRYVPISINYRTEIDKPSQHHHHHH | 90

Data request: Given 2987_F06 (designed binder) MGVSDVPRDLEVVAATPTSLLISWSLPHAGHAHYYRITYGETGGNSPVQEFTVPGRGVTATISGLKPGVDYTITVYAVTLTKSKVIHYMPISINYRTEIDKPSQHHHHHH , state its recorded ARE-luciferase IC50.
Data returned: 80
